system: blackgrass (Alopecurus myosuroides); assay: Test A postemergence, visual injury rating; type: in vivo; details: 500 g ai/ha, 0 is no effect, 100 is complete control
propertyMeasured: Blackgrass plant response rating (0 to 100 scale)

{"columns": ["compound", "experimentalValue"],
 "data": [
  ["O=C(OCCC(F)(F)F)c1c(F)cccc1Oc1ncc(Br)cn1 [Compound 41]", 0],
  ["O=C(OCCC(F)(F)F)c1c(F)cccc1Oc1ncc(Cl)cn1 [Compound 42]", 0],
  ["N#CCCOC(=O)c1c(Br)cccc1Oc1ncc(Cl)cn1 [Compound 7]", 80],
  ["CCCCC(=O)c1c(Oc2ncc(Cl)cn2)cccc1C(F)(F)F [Compound 130]", 90],
  ["C=C(Br)COC(=O)c1c(Br)cccc1Oc1ncc(Cl)cn1 [Compound 61]", 100]
]}

----------
Ryegrass, Italian plant response rating values, listed per item
test system: Italian ryegrass (Lolium multiflorum); assay: Test A postemergence, visual injury rating; assay type: in vivo; settings: 31 g ai/ha, 0 to 100 scale (0 no effect, 100 complete control)
propertyMeasured: Ryegrass, Italian plant response rating

{"columns": ["compound", "experimentalValue"],
 "data": [
  ["CCc1cccc(Oc2ncc(Cl)cn2)c1CCCCC(F)(F)F [Compound 134]", 0],
  ["N#CC(CCCCC(F)(F)F)c1ccccc1Oc1ncc(Cl)cn1 (centres unmarked) [Compound 145]", 10],
  ["FC(F)(F)CCCCc1c(Br)cccc1Oc1ncc(Cl)cn1 [Compound 138]", 30],
  ["O=C(CCCC(F)(F)F)c1c(Cl)cccc1Oc1ncc(Cl)cn1 [Compound 143]", 20],
  ["N#CCc1ccccc1Oc1ncc(Cl)cn1 [Compound 140]", 0]
]}

----------
system: crabgrass, large (large crabgrass, Digitaria sanguinalis); assay: Test C preemergence, plant response rating; format: in vivo; conditions: Preemergence, 62 g ai/ha; scale of 0 to 100
Plant response rating, Crabgrass, Large values, listed per item
propertyMeasured: Plant response rating, Crabgrass, Large

{"columns": ["smilesRecord", "propertyMeasured", "experimentalValue"],
 "data": [
  ["N#Cc1cccc(Oc2ncc(Cl)cn2)c1C(=O)OCCC(F)(F)F", "Plant response rating, Crabgrass, Large", 80],
  ["N#Cc1cccc(Oc2ncc(Cl)cn2)c1CCCC(F)(F)F", "Plant response rating, Crabgrass, Large", 100],
  ["C=C(Br)COC(=O)c1c(Br)cccc1Oc1ncc(Cl)cn1", "Plant response rating, Crabgrass, Large", 75],
  ["O=C(OCCC(F)(F)F)c1c(Br)cccc1Oc1ncc(Br)cn1", "Plant response rating, Crabgrass, Large", 100]
]}

----------
system: speedwell (bird's-eye speedwell, Veronica persica); test: Test C postemergence, plant response rating; format: in vivo; conditions: 16 g ai/ha, scale of 0 to 100
Description: […]
propertyMeasured: Plant response rating, Speedwell

{"columns": ["smilesRecord", "subjectOfTest", "experimentalValue"],
 "data": [
  ["O=C(CCCCC(F)(F)F)c1c(Br)cccc1Oc1ncc(Cl)cn1", "speedwell (bird's-eye speedwell, Veronica persica)", 75],
  ["CCCCC(=O)c1c(Oc2ncc(Cl)cn2)cccc1C(F)(F)F", "speedwell (bird's-eye speedwell, Veronica persica)", 80],
  ["CCCCC(=O)c1c(Br)cccc1Oc1ncc(Cl)cn1", "speedwell (bird's-eye speedwell, Veronica persica)", 85],
  ["O=C(CCC(F)(F)F)c1c(Cl)cccc1Oc1ncc(Cl)cn1", "speedwell (bird's-eye speedwell, Veronica persica)", 100]
]}
